Every entry's value here was drawn from patent US5620955A.

Below are compounds with their Kd as measured on BBN receptor (Rattus norvegicus).
Non-standard residues stand in square brackets, D forms with d. Residues, ends and D or L forms follow the SMILES beside them.
MEASURED_PROPERTY: Kd

>  <COMPOUND>
CC(C)C[C@@H]1NC(=O)[C@H](Cc2c[nH]cn2)NC(=O)[C@@H](C)NC(=O)[C@H](C(C)C)NC(=O)[C@H](C)NC(=O)[C@H](Cc2c[nH]c3ccccc23)NC(=O)[C@H](CCC(N)=O)NC(=O)[C@H](CC(N)=O)NC(=O)[C@H](Nc2ccc([N+](=O)[O-])cc2[N+](=O)[O-])CCCCNC1=O

>  <RESULT>
> 3000 nM

$$$$
>  <COMPOUND>
CCOC(=O)[C@H](CC(C)C)NC(=O)[C@H](Cc1c[nH]cn1)NC(=O)[C@@H](C)NC(=O)[C@@H](NC(=O)[C@H](C)NC(=O)[C@H](Cc1c[nH]c2ccccc12)NC(=O)[C@H](Cc1c[nH]cn1)NC(C)=O)C(C)C [PTC 818] (Ac-HWAV[dA]HL-OEt)

>  <RESULT>
8.1 nM

$$$$

----------
biological target: BBN receptor (Homo sapiens); construct: endogenous in cells; host or cells: NCI-H345 (human SCLC); assay: Cytosolic Ca++ assay in SCLC cell line NCI-H345; format: cell-based; set-up: key: antagonized (A); had no effect (--) on the ability of 10 nM BBN to; conditions: compound 10 μM; 10 nM BBN elevation of cytosolic Ca++
Positions of bridges follow the written chain, without caps; N, C: chain ends. Non-standard residues stand in square brackets, D forms with d. Residues, ends and D or L forms follow the SMILES beside them. *: point of attachment. Bz = O=C(c1ccccc1)*; NHPr = CCCN*
MEASURED_PROPERTY: Ca++ effect

>  <COMPOUND>
CC(C)C[C@@H]1NC(=O)[C@H](Cc2c[nH]cn2)NC(=O)[C@@H](C)NC(=O)[C@H](C(C)C)NC(=O)[C@H](C)NC(=O)[C@H](Cc2c[nH]c3ccccc23)NC(=O)[C@H](CCC(N)=O)NC(=O)[C@H](CC(N)=O)NC(=O)[C@H](NC(=O)c2ccccc2)CCCCNC1=O [PTC 807] (Bz-[dK]NQWAV[dA]HL; lactam 1-C)

>  <MEASURED_PROPERTY>
Ca++ effect

>  <RESULT>
--

$$$$
>  <COMPOUND>
CCCNC(=O)[C@H]1CCC(=O)NCCCC[C@H](NC(C)=O)C(=O)N[C@@H](Cc2c[nH]c3ccccc23)C(=O)N[C@@H](C)C(=O)N[C@@H](C(C)C)C(=O)N[C@H](C)C(=O)N[C@@H](Cc2c[nH]cn2)C(=O)N1 [PCT 812] (Ac-KWAV[dA]H[dE]-NHPr; lactam 1-7)

>  <MEASURED_PROPERTY>
Ca++ effect

>  <RESULT>
A

$$$$

----------
target: BBN receptor (Homo sapiens, UniProt P30550); construct: endogenous in cells; host or cells: NCI-H345 (human SCLC); assay: Cytosolic Ca++ assay in SCLC cell line NCI-H345; format: cell-based; set-up: key: antagonized (A); had no effect (--) on the ability of 10 nM BBN to; conditions: compound 10 μM; 10 nM BBN elevation of cytosolic Ca++
Sequence (P30550 whole entry): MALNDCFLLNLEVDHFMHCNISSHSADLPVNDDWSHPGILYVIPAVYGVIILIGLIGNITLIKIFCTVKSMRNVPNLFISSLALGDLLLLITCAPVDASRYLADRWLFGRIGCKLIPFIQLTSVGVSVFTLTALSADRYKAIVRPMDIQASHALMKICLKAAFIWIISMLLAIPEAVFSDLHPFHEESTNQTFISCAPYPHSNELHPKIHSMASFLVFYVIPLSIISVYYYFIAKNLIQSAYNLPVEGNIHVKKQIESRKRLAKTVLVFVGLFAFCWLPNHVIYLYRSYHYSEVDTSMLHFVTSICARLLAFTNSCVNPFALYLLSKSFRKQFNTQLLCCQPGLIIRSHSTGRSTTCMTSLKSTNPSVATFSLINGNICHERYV
Positions of bridges follow the written chain, without caps; N, C: chain ends. Residues, ends and D or L forms follow the SMILES beside them.

>  <MOLECULE>
CC(C)C[C@@H]1NC(=O)[C@H](Cc2c[nH]cn2)NC(=O)[C@@H](C)NC(=O)[C@H](C(C)C)NC(=O)[C@H](C)NC(=O)[C@H](Cc2c[nH]c3ccccc23)NC(=O)[C@H](CCC(N)=O)NC(=O)[C@H](CC(N)=O)NC(=O)[C@H](Nc2ccc([N+](=O)[O-])cc2[N+](=O)[O-])CCCCNC1=O

>  <Ca++ effect>
--

$$$$
>  <MOLECULE>
CC(=O)N[C@H]1CCCCNC(=O)[C@H](CC(C)C)NC(=O)[C@H](Cc2c[nH]cn2)NC(=O)[C@H](C)NC(=O)[C@H](C(C)C)NC(=O)[C@H](C)NC(=O)[C@H](Cc2c[nH]c3ccccc23)NC(=O)[C@H](CCC(N)=O)NC(=O)[C@H](CC(N)=O)NC1=O [PTC 803] (Ac-KNQWAVAHL; lactam 1-C)

>  <Ca++ effect>
--

$$$$

----------
target: BBN receptor (Rattus norvegicus); assay: Inhibition of bombesin-stimulated amylase release from rat pancreatic acini; details: half-maximal inhibition of bombesin-stimulated amylase release from acini; mean ± s.e.m.
Positions of bridges follow the written chain, without caps; N, C: chain ends. Non-standard residues stand in square brackets, D forms with d. Residues, ends and D or L forms follow the SMILES beside them. *: point of attachment. Chlorambucil = O=C(CCCc1ccc(N(CCCl)CCCl)cc1)*; NH(4-Br-phenethyl) = Brc1ccc(CCN*)cc1
Documented IC50 across a set of molecules

>  <MOLECULE>
CCOC(=O)[C@H](CC(C)C)NC(=O)[C@H](Cc1c[nH]cn1)NC(=O)[C@@H](C)NC(=O)[C@@H](NC(=O)[C@H](C)NC(=O)[C@H](Cc1c[nH]c2ccccc12)NC(=O)[C@H](Cc1c[nH]cn1)NC(=O)CCCc1ccc(N(CCCl)CCCl)cc1)C(C)C [PTC 821] (Chlorambucil-HWAV[dA]HL-OEt)

>  <CENSOR_SYMBOL>
=

>  <IC50, nM>
6.3

$$$$
>  <MOLECULE>
CC(=O)N[C@@H]1CCCCNC(=O)[C@H](CC(C)C)NC(=O)[C@H](Cc2c[nH]cn2)NC(=O)[C@@H](C)NC(=O)[C@H](C(C)C)NC(=O)[C@H](C)NC(=O)[C@H](Cc2c[nH]c3ccccc23)NC(=O)[C@H](CCC(N)=O)NC(=O)[C@H](CC(N)=O)NC1=O [PTC 804] (Ac-[dK]NQWAV[dA]HL; lactam 1-C)

>  <CENSOR_SYMBOL>
>

>  <IC50, nM>
3000

$$$$
>  <MOLECULE>
CCOC(=O)[C@H](CC(C)C)NC(=O)[C@H](Cc1c[nH]cn1)NC(=O)[C@@H](C)NC(=O)[C@@H](NC(=O)[C@H](C)NC(=O)[C@H](Cc1c[nH]c2ccccc12)NC(=O)[C@H](CCC(N)=O)NC(=O)[C@H](CC(N)=O)NC(=O)CCCc1ccc(N(CCCl)CCCl)cc1)C(C)C [PTC 815] (Chlorambucil-NQWAV[dA]HL-OEt)

>  <CENSOR_SYMBOL>
=

>  <IC50, nM>
8.5

$$$$
>  <MOLECULE>
CC(=O)N[C@@H](Cc1c[nH]cn1)C(=O)N[C@@H](Cc1c[nH]c2ccccc12)C(=O)N[C@@H](C)C(=O)N[C@H](C(=O)N[C@H](C)C(=O)N[C@@H](Cc1c[nH]cn1)C(=O)NCCc1ccc(Br)cc1)C(C)C [PTC 820] (Ac-HWAV[dA]H-{NH(4-Br-phenethyl)})

>  <CENSOR_SYMBOL>
>

>  <IC50, nM>
3000

$$$$
>  <MOLECULE>
CCOC(=O)[C@H](CC(C)C)NC(=O)[C@H](Cc1c[nH]cn1)NC(=O)[C@@H](C)NC(=O)[C@@H](NC(=O)[C@H](C)NC(=O)[C@H](Cc1c[nH]c2ccccc12)NC(=O)[C@H](Cc1c[nH]cn1)NC(C)=O)C(C)C [PTC 818] (Ac-HWAV[dA]HL-OEt)

>  <CENSOR_SYMBOL>
=

>  <IC50, nM>
4.9

$$$$
>  <MOLECULE>
CC(=O)N[C@H]1CCCCNC(=O)[C@H](CC(C)C)NC(=O)[C@H](Cc2c[nH]cn2)NC(=O)[C@H](C)NC(=O)[C@H](C(C)C)NC(=O)[C@H](C)NC(=O)[C@H](Cc2c[nH]c3ccccc23)NC(=O)[C@H](CCC(N)=O)NC(=O)[C@H](CC(N)=O)NC1=O [PTC 803] (Ac-KNQWAVAHL; lactam 1-C)

>  <CENSOR_SYMBOL>
>

>  <IC50, nM>
3000

$$$$

----------
biological target: BBN receptor (Rattus norvegicus, UniProt P52500); experiment: Inhibition of bombesin-stimulated amylase release from rat pancreatic acini; conditions: half-maximal inhibition of bombesin-stimulated amylase release from acini; mean ± s.e.m.
Sequence (P52500 whole entry): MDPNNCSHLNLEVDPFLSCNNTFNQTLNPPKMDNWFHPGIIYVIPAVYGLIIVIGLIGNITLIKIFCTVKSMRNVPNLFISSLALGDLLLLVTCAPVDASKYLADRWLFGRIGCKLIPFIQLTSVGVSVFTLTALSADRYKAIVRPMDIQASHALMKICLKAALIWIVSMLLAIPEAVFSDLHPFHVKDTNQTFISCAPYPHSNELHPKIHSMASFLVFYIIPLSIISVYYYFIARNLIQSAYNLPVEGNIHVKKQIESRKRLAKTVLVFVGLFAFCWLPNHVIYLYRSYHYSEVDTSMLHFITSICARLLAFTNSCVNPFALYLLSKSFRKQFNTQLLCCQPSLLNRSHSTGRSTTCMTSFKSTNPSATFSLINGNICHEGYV
Positions of bridges follow the written chain, without caps; N, C: chain ends. Non-standard residues stand in square brackets, D forms with d. Residues, ends and D or L forms follow the SMILES beside them.
Documented IC50 across a set of molecules

>  <MOLECULE>
CC(=O)N[C@H]1CCCCNC(=O)[C@H](CC(C)C)NC(=O)[C@H](Cc2c[nH]cn2)NC(=O)[C@@H](C)NC(=O)[C@H](C(C)C)NC(=O)[C@H](C)NC(=O)[C@H](Cc2c[nH]c3ccccc23)NC(=O)[C@H](CCC(N)=O)NC(=O)[C@H](CC(N)=O)NC1=O [PTC 806] (Ac-KNQWAV[dA]HL; lactam 1-C)

>  <TARGET_OR_SYSTEM>
BBN receptor (Rattus norvegicus, UniProt P52500)

>  <IC50>
> 3 µM

$$$$
>  <MOLECULE>
CC(C)C[C@@H]1NC(=O)[C@H](Cc2c[nH]cn2)NC(=O)[C@@H](C)NC(=O)[C@H](C(C)C)NC(=O)[C@H](C)NC(=O)[C@H](Cc2c[nH]c3ccccc23)NC(=O)[C@H](CCC(N)=O)NC(=O)[C@H](CC(N)=O)NC(=O)[C@H](Nc2ccc([N+](=O)[O-])cc2[N+](=O)[O-])CCCCNC1=O

>  <TARGET_OR_SYSTEM>
BBN receptor (Rattus norvegicus, UniProt P52500)

>  <IC50>
> 3 µM

$$$$
>  <MOLECULE>
CC(=O)N[C@@H]1CCCCNC(=O)[C@H](CC(C)C)NC(=O)[C@H](Cc2c[nH]cn2)NC(=O)[C@H](C)NC(=O)[C@H](C(C)C)NC(=O)[C@H](C)NC(=O)[C@H](Cc2c[nH]c3ccccc23)NC(=O)[C@H](CCC(N)=O)NC(=O)[C@H](CC(N)=O)NC1=O [PTC 805] (Ac-[dK]NQWAVAHL; lactam 1-C)

>  <TARGET_OR_SYSTEM>
BBN receptor (Rattus norvegicus, UniProt P52500)

>  <IC50>
> 3 µM

$$$$
